Attribution: ChEMBL document CHEMBL3588850

Assignment: determine reported K for the given molecules.
system: Nucleic Acid; assay: Binding affinity to wild type HIV1 TAR RNA assessed as association constant at pH 6.8 by ethidium bromide displacement assay based Scatchard analysis method; assay type: nucleic-acid assay; conditions: Human immunodeficiency virus 1
Numbers only, in ×10⁷ /M.

NC[C@@H]1O[C@H](O[C@H]2[C@@H](O)[C@H](O[C@@H]3[C@@H](O)[C@H](N)C[C@H](N)[C@H]3O[C@H]3O[C@H](CN)[C@@H](O)[C@H](O)[C@H]3N)O[C@@H]2Cn2cc(CCCCc3cn(C[C@H]4O[C@@H](O[C@@H]5[C@@H](O)[C@H](N)C[C@H](N)[C@H]5O[C@H]5O[C@H](CN)[C@@H](O)[C@H](O)[C@H]5N)[C@H](O)[C@@H]4O[C@H]4O[C@@H](CN)[C@@H](O)[C@H](O)[C@H]4N)nn3)nn2)[C@H](N)[C@@H](O)[C@@H]1O 2.6

Next up:
Task: Fill in the blank: the reported K of C/C(CCc1cn(C[C@H]2O[C@@H](O[C@@H]3[C@@H](O)[C@H](N)C[C@H](N)[C@H]3O[C@H]3O[C@H](CN)[C@@H](O)[C@H](O)[C@H]3N)[C@H](O)[C@@H]2O[C@H]2O[C@@H](CN)[C@@H](O)[C@H](O)[C@H]2N)nn1)=C(/C)CCc1cn(C[C@H]2O[C@@H](O[C@@H]3[C@@H](O)[C@H](N)C[C@H](N)[C@H]3O[C@H]3O[C@H](CN)[C@@H](O)[C@H](O)[C@H]3N)[C@H](O)[C@@H]2O[C@H]2O[C@@H](CN)[C@@H](O)[C@H](O)[C@H]2N)nn1 is ____.
Result: 1.1

* * *

target: Nucleic Acid; assay: Binding affinity to HIV1 TAR RNA tetraloop mutant at pH 6.8 by ethidium bromide displacement assay; format: nucleic-acid assay, Human immunodeficiency virus 1
MEASURED ATTRIBUTE: IC50 (µM)
Numbers only, in µM.

// each listed molecule needs a value for IC50
1. NC[C@@H]1O[C@H](O[C@H]2[C@@H](O)[C@H](O[C@@H]3[C@@H](O)[C@H](N)C[C@H](N)[C@H]3O[C@H]3O[C@H](CN)[C@@H](O)[C@H](O)[C@H]3N)O[C@@H]2Cn2cc(COCCCCCCCCCCCCOCc3cn(C[C@H]4O[C@@H](O[C@@H]5[C@@H](O)[C@H](N)C[C@H](N)[C@H]5O[C@H]5O[C@H](CN)[C@@H](O)[C@H](O)[C@H]5N)[C@H](O)[C@@H]4O[C@H]4O[C@@H](CN)[C@@H](O)[C@H](O)[C@H]4N)nn3)nn2)[C@H](N)[C@@H](O)[C@@H]1O
2. NC[C@@H]1O[C@H](O[C@H]2[C@@H](O)[C@H](O[C@@H]3[C@@H](O)[C@H](N)C[C@H](N)[C@H]3O[C@H]3O[C@H](CN)[C@@H](O)[C@H](O)[C@H]3N)O[C@@H]2Cn2cc(-c3cccc(-c4cn(C[C@H]5O[C@@H](O[C@@H]6[C@@H](O)[C@H](N)C[C@H](N)[C@H]6O[C@H]6O[C@H](CN)[C@@H](O)[C@H](O)[C@H]6N)[C@H](O)[C@@H]5O[C@H]5O[C@@H](CN)[C@@H](O)[C@H](O)[C@H]5N)nn4)c3)nn2)[C@H](N)[C@@H](O)[C@@H]1O
3. NC[C@@H]1O[C@H](O[C@H]2[C@@H](O)[C@H](O[C@@H]3[C@@H](O)[C@H](N)C[C@H](N)[C@H]3O[C@H]3O[C@H](CN)[C@@H](O)[C@H](O)[C@H]3N)O[C@@H]2Cn2cc(CCCc3cn(C[C@H]4O[C@@H](O[C@@H]5[C@@H](O)[C@H](N)C[C@H](N)[C@H]5O[C@H]5O[C@H](CN)[C@@H](O)[C@H](O)[C@H]5N)[C@H](O)[C@@H]4O[C@H]4O[C@@H](CN)[C@@H](O)[C@H](O)[C@H]4N)nn3)nn2)[C@H](N)[C@@H](O)[C@@H]1O
4. NC[C@@H]1O[C@H](O[C@H]2[C@@H](O)[C@H](O[C@@H]3[C@@H](O)[C@H](N)C[C@H](N)[C@H]3O[C@H]3O[C@H](CN)[C@@H](O)[C@H](O)[C@H]3N)O[C@@H]2Cn2cc(COCCCCCCCCOCc3cn(C[C@H]4O[C@@H](O[C@@H]5[C@@H](O)[C@H](N)C[C@H](N)[C@H]5O[C@H]5O[C@H](CN)[C@@H](O)[C@H](O)[C@H]5N)[C@H](O)[C@@H]4O[C@H]4O[C@@H](CN)[C@@H](O)[C@H](O)[C@H]4N)nn3)nn2)[C@H](N)[C@@H](O)[C@@H]1O

Result:
[0.3, 0.18, 0.19, 0.188]
